B1: ZNF449 (parent)
chain: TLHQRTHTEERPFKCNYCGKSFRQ

Variants of: B1
Method Summary: protein stability index of a GFP-peptide fusion (GPS, HEK-293T) (PSI 1-6); higher = more stable;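 note: lentivirally expressed fusions sorted by FACS into six bins by GFP to DsRed ratio, PSI derived from sequencing read proportions per bin multiplied by bin number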
Conditions Used: c terminus: a fixed tail appended
Can you tell me protein stability index for the items I'm about to list?
Give your answer as a number; write no unit.

Lookup: Quick one: protein stability index of TLHQRIHTEERPFKCNYCGKSFRQ [T6I] ?
Found: 2.33

Lookup: Quick one: protein stability index of TLHQRTHTEERPFKCNYCGKSFQQ [R23Q] ?
Found: 2.16

Lookup: Quick one: protein stability index of TLHQRTHTEEHPFKCNYCGKSFRQ [R11H] ?
Found: 2.53
